B1: PTPRD (parent)
chain: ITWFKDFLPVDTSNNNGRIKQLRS

- Variants of: B1
- protocolDescription: protein stability index of a GFP-peptide fusion (GPS, HEK-293T) (PSI 1-6); higher = more stable;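 note: lentivirally expressed fusions sorted by FACS into six bins by GFP to DsRed ratio, PSI derived from sequencing read proportions per bin multiplied by bin number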
- conditions: c terminus: a fixed tail appended
measuredMetric: protein stability index
Enter a number only.

Can you share its protein stability index? I mean this variant: ITVFKDFLPVDTSNNNGRIKQLRS [W3V]
2.46

Now consider ITWFKDFLPVDMSNNNGRIKQLRS [T12M] and answer again.
2.32

Now consider ITWFKDFLPVDTSNNGGRIKQLRS [N16G] and answer again.
1.7

Now consider ITWFKDFLPVDTSFNNGRIKQLRS [N14F] and answer again.
1.5

Now consider FTWFKDFLPVDTSNNNGRIKQLRS [I1F] and answer again.
2.03

Now consider ITWFKDFLPVDTSNNNGDIKQLRS [R18D] and answer again.
1.83

Now consider ITWFKDFLPDDTSNNNGRIKQLRS [V10D] and answer again.
2.39

Now consider ITWFKDFLPVDTSNNNGRIKQLWS [R23W] and answer again.
1.11

Now consider ITWFKDFLPVDTSNNNGRIKQLRM [S24M] and answer again.
1.54

Now consider ITWFKDFLPFDTSNNNGRIKQLRS [V10F] and answer again.
2.65

Now consider ITWHKDFLPVDTSNNNGRIKQLRS [F4H] and answer again.
2.27

Now consider IEWFKDFLPVDTSNNNGRIKQLRS [T2E] and answer again.
2.33

Now consider ITWFKDFLPVDTSWNNGRIKQLRS [N14W] and answer again.
2.16

Now consider VTWFKDFLPVDTSNNNGRIKQLRS [I1V] and answer again.
2.15

Now consider ITWFKDFLPVDTSNNNGRIKHLRS [Q21H] and answer again.
1.56

Now consider ITSFKDFLPVDTSNNNGRIKQLRS [W3S] and answer again.
3.62

Now consider ITWFKDFLPVDTSNNNGRYKQLRS [I19Y] and answer again.
2.13

Now consider ITWFKDFNPVDTSNNNGRIKQLRS [L8N] and answer again.
2.1

Now consider ITWFKDFLPVDTYNNNGRIKQLRS [S13Y] and answer again.
2.05

Now consider ITWFKDFLPVDTVNNNGRIKQLRS [S13V] and answer again.
2.38

Now consider ITWFKDFLPVDTSNNNGRIKQLRG [S24G] and answer again.
2.34

Now consider ITWFKNFLPVDTSNNNGRIKQLRS [D6N] and answer again.
1.94
